# Tested on: UM-UC-9 engineered cells
# procedure-text: Cell proliferation / short-term viability assay, CellTiter-Glo 144 h
# Type: cell-based, human
# test-parameters: listed as 101b, read-out: CTGlo 144 h UMUC9.5, G150
# Experimental: Cell Seeding for Proliferation Assay UM-UC-9 engineered cells were cultured in Dulbecco's Modified Eagle Medium (DMEM) supplemented with 10% FBS, 25 mM glucose (high glucose), 4.0 mM L-glutamine, 2.0 mM GlutaMAX™, 1.0 mM pyruvate, 1.0% non-essential amino acids (NEAA) in a 95% humidified incubator at 37° C. with 5% CO2. Cell banks of UM-UC-9 engineered assay-ready cells (ARCs) were prepared from a very active growth stage. […] Preparation of Test Compound in Assay-Ready Plate […]
value-kind: pIC50
Field pIC50 (float): negative decimal logarithm of the concentration in molar.

What pIC50 appears in the records for this compound with UM-UC-9 engineered cells? COc1cc(-c2cc(C(=O)N3CCC(C(=O)NC4CCC(C)CC4)CC3)n[nH]2)c(Cl)cn1 (single isomer, unassigned) [Example 101-B]
7.08
